Just for reference, PubChem BioAssay AID743269 is where these values come from.

Tested on: HIV-1 integrase (with human LEDGF/p75)
Experiment: blockers of LEDGF/p75-dependent integrase strand transfer – biochemical, TR-FRET, high throughput, primary screen (AID 743269);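 note: signal is the Cy5 over europium emission ratio at 671 and 618 nm; 0% = plate median of compound wells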
Conditions: TR-FRET IN-LEDGF/p75 DNA integration, Eu/Cy5; at 3.7 µM; hits give high values
The whole screen tested about 370,000 compounds, of which about 2,400 (0.65%) were called active. Many of the other results were omitted from the sample, so actives are more common in it than they were.
Exercise: state measured inhibition for each of the compounds provided.
Numbers only; they are read as %.

What inhibition value was documented for this compound, C/C(=N\NC(=O)c1cccc(N2CCCC2=O)c1)c1ccc(N)cc1 ?
-2.92

Also O=C(CSc1nc2ccccc2nc1N1CCCCC1)N1CCN(S(=O)(=O)c2cccc([N+](=O)[O-])c2)CC1 , if possible.
7.35

Also COC(=O)c1ccccc1-n1cc(COC(=O)NCCc2ccccc2)nn1 , if possible.
-3.43

Also OC(c1ccccc1)C(CN1CCOCC1)c1ccccc1 (stereo unspecified) , if possible.
2.05

Also O=C(c1cccc(N2CCCC2=O)c1)N1CCOCC1 , if possible.
-4.51

Also C=CCN1C(=O)[C@H](CC(=O)NCCCN2CCCC2=O)[C@@]2(C(=O)OCC)CCCC=C12 , if possible.
-3.27

Also COc1ccc(Cn2cc(CN3[C@@H](CC(C)C)COc4cc(Br)ccc4S3(=O)=O)nn2)cc1 , if possible.
3.34

Also NC1=NN(c2cccc(C(=O)O)c2)C(=O)C1 , if possible.
13.8

Also O=C(NC1CCCCN(Cc2cccc(C(F)(F)F)c2)C1=O)c1ccccc1I (stereo unspecified) , if possible.
-1.97

Also CN1C(=O)c2cc(NS(C)(=O)=O)ccc2OC[C@@H]2O[C@@H](CC(=O)NCc3ccc(-c4ccccc4)cc3)CC[C@H]21 , if possible.
0.81

Also Cc1ccccc1CN1CCCCC(NC(=O)Nc2ccccc2F)C1=O (stereo unspecified) , if possible.
-1.11

Also O=C(COC(=O)c1cc(S(=O)(=O)N2CCOCC2)ccc1F)NC1CC1 , if possible.
1.33

Also C=CCN(C(=O)[C@@H](CCCC)[C@@H](O)c1ccc(Cl)cc1)c1ccccc1 , if possible.
2.74

Also COCc1cc(C)nc2sc3c(=O)n(-c4cccc5ccccc45)nnc3c12 , if possible.
18.6

Also O=C(CSc1nc2ccccc2s1)NN=Cc1ccc(O)cc1O , if possible.
-3.78

Also Oc1c(CN2CCOCC2)ccc(CN2CCOCC2)c1O , if possible.
58

Also O=C(NCCCc1ccccc1)[C@H](Cc1ccccc1)NC1(C(=O)NCCc2c[nH]c3ccccc23)CCC1 , if possible.
-0.75

Also Cc1ccccc1NC(=O)Cn1nnc(-c2ccccc2F)n1 , if possible.
3.47

Also COCc1cc(C)nc2sc(C(=O)NC3CCCCC3)c(N)c12 , if possible.
0.63

Also CC(=O)c1cc(-c2ccc3ccccc3c2)c(=O)n2c1CCC2 , if possible.
0.07

Also COC(=O)[C@]12C[C@H](CC(=O)N3CCN(C(=O)C4CC4)CC3)C(=O)N(CCC3=CCCCC3)C1=C[C@H](C(C)C)O[C@@H]2C1CC1 , if possible.
-2.49
